Biological target: T1, SIRPA_V1_IgV (human, UniProt P78324 31-149)
T1 construct: Secreted recombinant protein from FreeStyle 293F cells
T1 sequence (P78324 other isoform, or with tags, fused parts or gaps limits assumed): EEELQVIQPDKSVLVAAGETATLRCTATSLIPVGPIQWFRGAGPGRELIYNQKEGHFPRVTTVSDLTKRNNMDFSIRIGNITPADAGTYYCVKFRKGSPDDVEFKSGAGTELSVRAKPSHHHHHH
Test: SPR Biacore T200, antibody captured on anti-human IgG (Fc), SIRPA_V1_IgV as analyte (0.25 to 16 nM), 1:1 model
pKd listing for selected binders.
Answer as the number alone; pKd is minus log10 of concentration in mol/L.

Known results for binders:
humanized anti-SIRPA antibody hD13_H1L3 (antibody, human IgG4 S228P, kappa, F234A L235A, V domains shown, hH1 heavy chain (IgG4proFALA) and hL3 kappa light chain; also called hD13_HIL3; HIL3 antibody) VH: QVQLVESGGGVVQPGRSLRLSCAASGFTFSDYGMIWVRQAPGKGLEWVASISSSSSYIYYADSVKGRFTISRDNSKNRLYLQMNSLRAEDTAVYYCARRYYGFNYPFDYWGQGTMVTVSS VL: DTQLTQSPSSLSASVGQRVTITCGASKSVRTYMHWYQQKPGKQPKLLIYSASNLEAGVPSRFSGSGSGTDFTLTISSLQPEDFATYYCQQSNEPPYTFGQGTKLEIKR	9.60
ADU-1805 (antibody, human IgG2, kappa, V domains shown, IgG2 heavy chain; also called ADU-1805_hG2 / ADU-1805_hK) VH: EVQLVQSGAEVVKPGASVKLSCKASGSTFTSYWMHWVKQAPGQGLEWIGAIYPVNSDTTYNQKFKGKATLTVDKSASTAYMELSSLRSEDTAVYYCTRSFYYSLDAAWFVYWGQGTLVTVSS VL: DIQMTQSPSSLSASVGDRVTITCRASQDIGSRLNWLQQKPGKAPKRLIYATSSLDSGVPSRFSGSGSGTEFTLTISSLQPEDFATYYCLQYASSPFTFGGGTKVEIKR	8.36

### Prompt pKd for KWAR23 (antibody, human IgG4 S228P, kappa, V domains shown, IgG4Pro heavy chain; also called KWAR23_hG4Pro / KWAR23_hK) VH: EVQLQQSGAELVKPGASVKLSCTASGFNIKDYYIHWVQQRTEQGLEWIGRIDPEDGETKYAPKFQDKATITADTSSNTAYLHLSSLTSEDTAVYYCARWGAYWGQGTLVTVSA VL: QIVLTQSPAIMSASPGEKVTLTCSASSSVSSSYLYWYQQKPGSSPKLWIYSTSNLASGVPARFSGSGSGTSYSLTISSMEAEDAASYFCHQWSSYPRTFGAGTKLELKR ?
### Response 8.59

### Prompt What about OSE-172 (antibody, human IgG4 S228P, kappa, V domains shown, IgG4Pro heavy chain) VH: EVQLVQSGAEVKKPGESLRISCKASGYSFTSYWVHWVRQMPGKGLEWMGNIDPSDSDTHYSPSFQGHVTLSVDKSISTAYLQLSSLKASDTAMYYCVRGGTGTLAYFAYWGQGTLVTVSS VL: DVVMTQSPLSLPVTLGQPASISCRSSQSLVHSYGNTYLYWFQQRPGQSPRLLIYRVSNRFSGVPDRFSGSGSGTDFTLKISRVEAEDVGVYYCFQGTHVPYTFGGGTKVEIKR ?
### Response 7.93
